Source listed as patent US20100056508A1.

- EXPERIMENTAL SYSTEM: recombinant human Dopamine Subtype D2s receptors (Homo sapiens, UniProt P14416)
- Construct: purchased Perkin Elmer
- Sequence (P14416 1-414 isoform P14416-2): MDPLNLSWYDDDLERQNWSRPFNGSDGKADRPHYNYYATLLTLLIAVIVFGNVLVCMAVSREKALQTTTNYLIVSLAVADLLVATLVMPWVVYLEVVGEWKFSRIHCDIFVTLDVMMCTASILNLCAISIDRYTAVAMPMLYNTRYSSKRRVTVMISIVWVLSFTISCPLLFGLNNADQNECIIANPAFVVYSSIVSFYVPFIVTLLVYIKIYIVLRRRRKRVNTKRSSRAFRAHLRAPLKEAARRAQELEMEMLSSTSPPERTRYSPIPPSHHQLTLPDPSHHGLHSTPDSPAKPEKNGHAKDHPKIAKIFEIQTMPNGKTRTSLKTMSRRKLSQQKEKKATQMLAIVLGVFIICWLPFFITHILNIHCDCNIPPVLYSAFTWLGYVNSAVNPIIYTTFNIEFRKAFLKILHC
- PROTOCOL SUMMARY: Dopamine D2 selectivity assay, [3H]-spiperone binding to membranes
- STUDY CONDITIONS: inhibition of [3H]-spiperone binding, read-out: D2 bind pIC50 (converted)
ENDPOINT LABEL: IC50 (nM)
Output spec: scalar in nM, unitless text.

COMPOUND: O=C(CCNCCc1cccc(-c2ccccc2)c1)N(CCNCCc1ccc(O)c2[nH]c(=O)ccc12)C1CCCCCC1 [Example 12, bis(trifluoroacetate)]
OBSERVED MEASUREMENT: 126

Kindly consider the entry below.
Request: Lab note: need IC50 with recombinant human Dopamine Subtype D2s receptors (Homo sapiens, UniProt P14416) for entry CCCC[C@@H](C)N(CCNCCc1ccc(O)c2c1OCC(=O)N2)C(=O)CCNCCc1cc(C)ccc1F [Example 56, bis(trifluoroacetate)] , please look it up.
Result: 31.6
